Source of measurements: paper PMC6356585

- Tested on: Vero cells
- protocol.summary: Cell viability (CellTiter-Glo) of Vero cells
- Format: cell-based
- particulars: 10 µM
Counter-ions that a name gives are not always drawn.
Kindly state Vero Viability for each of the entries shown.

CCCCCCCCCCCCCCC[C@@H](O)[C@H](CO)NC(C)=O [C2-dihydroceramide] has a reported Vero Viability of 101.3 ± 3.7% of untreated control

CN(C)C(=N)N=C(N)N [Metformin·HCl] has a reported Vero Viability of 92.3 ± 4.2% of untreated control

Nc1cc(N2CCCCC2)nc(N)[n+]1[O-] has a reported Vero Viability of 96.3 ± 3.2% of untreated control

Clc1cccc(Cl)c1N=C1NCCN1 [Clonidine·HCl] has a reported Vero Viability of 97.7 ± 2.6% of untreated control

C[C@H]1CC[C@@]2(OC1)O[C@H]1C[C@H]3[C@@H]4CC[C@@H]5C[C@@H](O[C@@H]6O[C@H](CO)[C@H](O)[C@H](O)[C@H]6O[C@@H]6O[C@H](CO)[C@@H](O)[C@H](O)[C@H]6O)CC[C@]5(C)[C@H]4CC[C@]3(C)[C@H]1[C@@H]2C has a reported Vero Viability of 38.7 ± 11.9% of untreated control

CC1=CC(=O)c2c(O)cccc2C1=O has a reported Vero Viability of 2.0 ± 0% of untreated control
